PROTOCOL: in vivo
TEST_SETTINGS: Wistar, rat, in vivo, iv, 0.1 mg/kg
READOUT_TYPE: AUC(0-inf) (µg·h/mL)
Write the value in µg·h/mL as a bare number.

Lookup: Query: AUC(0-inf); subject: CCNC(=O)[C@@H]1CCCN1C(=O)[C@H](CCCNC(=N)N)NC(=O)[C@H](CC(C)C)NC(=O)[C@@H](CC(C)C)NC(=O)[C@H](Cc1ccc(O)cc1)NC(=O)[C@H](CO)NC(=O)[C@H](Cc1c[nH]c2ccccc12)NC(=O)[C@H](Cc1c[nH]cn1)NC(=O)[C@@H]1CCC(=O)N1 [leuprolide]
Found: 0.105

The measured values listed here are drawn from paper PMC6017563.
